Ref: ChEMBL document CHEMBL5365528

assay: Dissociation constant, pKa of the compound in aqueous phosphate buffer with 3 to 4% DMSO; assay type: physicochemical

Smiles	pKa
OB1NN=Cc2ccccc21	> 14
OB1NN=C(c2ccccc2)c2ccccc21	> 14
OB1ON=C(c2ccccc2)c2ccccc21	~5.5
